System: L6
Test method notes: Cytotoxicity against rat L6 cells after 72 hrs by Alamar blue assay
Assay type: cell-based
Condition parameters: L6, 72 h
# key: entry, value: IC50
Readout kind: IC50

structure_notation=O=C(Cc1ccccc1)NCCCOCCOCCOCCCNC(=O)Cc1ccccc1 measured_result="> 200 µM"
structure_notation=O=C(Cc1ccccc1O)NCCCNCCNCCCNC(=O)Cc1ccccc1O measured_result="> 130 µM"
structure_notation=O=C(Cc1ccccc1)NCCCCNC(=O)Cc1ccccc1 measured_result="> 280 µM"

---

System: L6
Test method notes: Cytotoxicity against rat L6 cells after 72 hrs by Alamar blue assay
Type: cell-based
Condition parameters: L6, 72 h
pIC50: −log10 of the molar value.
Readout kind: pIC50

structure_notation=COc1cc(CC(=O)NCCCOCCOCCOCCCNC(=O)Cc2ccc(O)c(OC)c2)ccc1O measured_result="< 3.80"
structure_notation=O=C(Cc1cccc(O)c1)NCCCNCCCCNCCCNC(=O)Cc1cccc(O)c1 measured_result="< 3.89"
structure_notation=O=C(Cc1cccc(O)c1)NCCCNCCNC(=O)Cc1cccc(O)c1 measured_result="< 3.74"
structure_notation=O=C(Cc1ccc(O)cc1)NCCCNCCCCNCCCNC(=O)Cc1ccc(O)cc1 measured_result=3.89
structure_notation=O=C(Cc1ccccc1)NCCCNCCCCNCCCNC(=O)Cc1ccccc1 measured_result="< 3.85"
